B1: MYL5 (parent)
chain: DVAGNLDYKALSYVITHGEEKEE

- Variants of: B1
- protocol.details: protein stability index of a GFP-peptide fusion (GPS, HEK-293T) (PSI 1-6); higher = more stable;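 further: lentivirally expressed fusions sorted by FACS into six bins by GFP to DsRed ratio, PSI derived from sequencing read proportions per bin multiplied by bin number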
- condition.label: c terminus: native
Exercise: for every item that follows, state its recorded protein stability index.

Illustrative cases are given below, each with its answer.
1. G18L: 1.69
2. K9N: 2.01
3. Y8H: 1.48
4. E23A: 4.11
5. N5D: 2.69
6. E22V: 4.09
7. G4Y: 1.57
8. A3C: 1.29

Could you tell me protein stability index for each of these variants? They are listed below.
1. A10H
2. I15Y
3. T16N

-- reply
1: 2; 2: 3.01; 3: 3.03

Could you tell me protein stability index for each of these variants? They are listed below.
1. V2D
2. V2E
3. D1I

-- reply
1: 2.19; 2: 1.35; 3: 1.97

Could you tell me protein stability index for each of these variants? They are listed below.
1. D1S
2. H17E
3. E20T
4. N5T
5. E23L

-- reply
1: 2.46; 2: 2.25; 3: 2.31; 4: 2.29; 5: 2.42

Could you tell me protein stability index for each of these variants? They are listed below.
1. A10T
2. G18I

-- reply
1: 1.9; 2: 2.42
